Biological target: UniProt:P15538
Sequence (P15538 25-503): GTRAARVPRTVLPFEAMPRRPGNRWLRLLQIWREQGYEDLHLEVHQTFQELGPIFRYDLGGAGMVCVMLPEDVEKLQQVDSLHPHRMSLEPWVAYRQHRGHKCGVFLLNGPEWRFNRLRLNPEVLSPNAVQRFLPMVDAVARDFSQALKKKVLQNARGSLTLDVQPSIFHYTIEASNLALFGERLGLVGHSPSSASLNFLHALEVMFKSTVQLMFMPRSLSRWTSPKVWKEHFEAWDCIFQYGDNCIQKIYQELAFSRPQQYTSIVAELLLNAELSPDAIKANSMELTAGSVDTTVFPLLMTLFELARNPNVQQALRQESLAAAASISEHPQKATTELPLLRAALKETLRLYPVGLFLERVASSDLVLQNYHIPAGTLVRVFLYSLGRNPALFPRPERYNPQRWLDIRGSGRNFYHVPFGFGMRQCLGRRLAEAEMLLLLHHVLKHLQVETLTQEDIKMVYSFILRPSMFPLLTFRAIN
Test: G-402 cellular enzyme assay, human CYP11B1 (cortisol release, HTRF)
Details: G-402 cells, 1 μM Deoxycortisol
Define the label as Y when EC50 is strictly less than 900 nM and as N in all remaining cases.

molecule: CC1(C)c2cc(Cl)ccc2C(=O)N1c1cncc(CN2CCCS2(=O)=O)c1 [Example 409]
assigned_category: Y

molecule: COc1ccc2c(n1)C(C)(C)N(c1cncc(OC(F)F)c1)C2=O [Example 295]
assigned_category: Y

molecule: CCC(=O)N1CCC(Oc2cncc(N3C(=O)c4ccc(Cl)cc4C3(C)C)c2)C1 (stereo not drawn) [Example 444]
assigned_category: Y

molecule: O=C1c2ccc(Cl)cc2CCN1c1cncc(Cc2ccccc2C(F)(F)F)c1 [Example 213]
assigned_category: Y

molecule: O=C1c2ccc(Cl)cc2CN1c1cncc2c1CCC[C@H]2O [Example 341]
assigned_category: N

molecule: CC(=O)NC1CCCc2c1cncc2N1Cc2cc(Cl)ccc2C1=O (single isomer, unassigned) [Example 322]
assigned_category: N

molecule: C[C@@H](O)c1cncc(N2CCc3cc(Cl)ccc3C2=O)c1 [Example 14]
assigned_category: N

molecule: CC(C)(O)c1cncc(N2CCc3cc(Cl)ccc3C2=O)c1 [Example 12]
assigned_category: Y
